B1: Cell division control protein 13 (Saccharomyces cerevisiae), P32797 (parent)
chain: MDTLEEPECPPHKNRIFVSSSKDFEGYPSKAIVPVQFVALLTSIHLTETKCLLGFSNFERRGDQSQEDQYLIKLKFKDRGSERLARITISLLCQYFDIELPDLDSDSGASPTVILRDIHLERLCFSSCKALYVSKHGNYTLFLEDIKPLDLVSVISTISTKSTNSSKHSSSELISECDLNNSLVDIFNNLIEMNRDEKNRFKFVKLIHYDIELKKFVQDQQKVLSQKSKAAAINPFFVPNRLGIPYIESQNEFNSQLMTLNVDEPTTDISNMGEEMHDSADPIEDSDSSTTSSTGKYFSSKSYIQSQTPERKTSVPNNWHDDDSGSKRKRKLSFHSPNASSIRKAISYEQLSLASVGSVERLEGKIVGMNPPQFASINEFKYCTLKLYFTQLLPNVPDKVLVPGVNCIEIVIPTRERICELFGVLNCQSDKISDILLLEKPDRISVEVERILWDNDKTASPGMAVWSLKNISTDTQAQAQVQVPAQSSASIDPSRTRMSKMARKDPTIEFCQLGLDTFETKYITMFGMLVSCSFDKPAFISFVFSDFTKNDIVQNYLYDRYLIDYENKLELNEGFKAIMYKNQFETFDSKLRKIFNNGLRDLQNGRDENLSQYGIVCKMNIKVKMYNGKLNAIVRECEPVPHSQISSIASPSQCEHLRLFYQRAFKRIGESAISRYFEEYRRFFPIHRNGSHLAKLRFDEVKHEPKKSPTTPALAEHIPDLNADVSSFDVKFTDISSLLDSSARLPRPQQTHKSNTLYSCEGRIIAIEYHASDLCFHITNELPLLQTRGLAPERVLQLHIITSKNFAYFFNRSSAYLQRQPLEEKYTQLAQFLGHSFKFNITSSLTLFPDTTVALQIWCPIECTFRELQQQLAHPKVAAAPDSGSLDCAINATVNPLRLLAAQNGVTVKKEEDNDDDAGAVPTS
partner: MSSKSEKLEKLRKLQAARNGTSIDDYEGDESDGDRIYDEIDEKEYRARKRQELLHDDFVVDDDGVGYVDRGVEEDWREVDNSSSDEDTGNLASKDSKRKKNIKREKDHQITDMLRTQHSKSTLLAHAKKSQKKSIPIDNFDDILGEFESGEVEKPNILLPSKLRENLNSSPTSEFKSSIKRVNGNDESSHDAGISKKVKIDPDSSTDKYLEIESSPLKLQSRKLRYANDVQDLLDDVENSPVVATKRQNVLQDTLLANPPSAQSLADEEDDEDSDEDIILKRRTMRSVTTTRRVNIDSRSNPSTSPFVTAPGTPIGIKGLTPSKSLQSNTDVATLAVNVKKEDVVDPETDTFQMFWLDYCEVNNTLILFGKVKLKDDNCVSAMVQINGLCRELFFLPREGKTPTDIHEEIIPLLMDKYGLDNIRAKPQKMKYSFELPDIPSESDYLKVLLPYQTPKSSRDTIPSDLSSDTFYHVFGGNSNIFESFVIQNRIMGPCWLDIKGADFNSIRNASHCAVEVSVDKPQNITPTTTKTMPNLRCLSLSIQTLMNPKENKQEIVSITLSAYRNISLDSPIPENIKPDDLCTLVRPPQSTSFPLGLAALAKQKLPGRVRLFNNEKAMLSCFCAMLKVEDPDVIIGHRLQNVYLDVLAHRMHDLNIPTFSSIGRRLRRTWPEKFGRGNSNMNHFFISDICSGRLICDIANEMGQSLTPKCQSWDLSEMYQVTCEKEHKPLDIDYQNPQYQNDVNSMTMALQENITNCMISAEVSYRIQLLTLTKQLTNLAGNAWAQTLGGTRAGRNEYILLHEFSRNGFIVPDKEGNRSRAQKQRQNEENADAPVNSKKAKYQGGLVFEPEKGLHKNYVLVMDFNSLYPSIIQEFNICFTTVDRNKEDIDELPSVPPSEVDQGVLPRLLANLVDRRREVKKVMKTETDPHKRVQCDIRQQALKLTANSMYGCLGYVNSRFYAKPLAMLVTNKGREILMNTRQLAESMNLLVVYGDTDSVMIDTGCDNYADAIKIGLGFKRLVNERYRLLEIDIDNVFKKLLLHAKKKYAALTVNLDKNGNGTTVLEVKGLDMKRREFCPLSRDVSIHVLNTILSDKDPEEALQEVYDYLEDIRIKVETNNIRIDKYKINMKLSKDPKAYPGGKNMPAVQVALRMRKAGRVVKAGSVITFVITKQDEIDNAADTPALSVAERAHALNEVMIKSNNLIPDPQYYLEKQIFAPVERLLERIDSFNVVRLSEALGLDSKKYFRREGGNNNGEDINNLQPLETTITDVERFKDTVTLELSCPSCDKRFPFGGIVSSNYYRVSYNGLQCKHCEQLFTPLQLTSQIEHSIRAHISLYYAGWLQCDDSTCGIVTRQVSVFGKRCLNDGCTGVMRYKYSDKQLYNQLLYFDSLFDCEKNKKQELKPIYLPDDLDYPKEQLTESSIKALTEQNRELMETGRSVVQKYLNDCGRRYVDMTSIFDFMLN

variants of: B1; settings: with dpola_yeast POL1, P13382
Recorded metric: effect of a mutation on the interaction

# example entries with known answers
Residue change	effect of a mutation on the interaction
K129R	decreasing interaction
S228P	decreasing interaction
I72T	decreasing interaction
D97F	decreasing interaction

Input: Tell me its effect of a mutation on the interaction given L392P as the entry.
Output: decreasing interaction

Input: Find the measured effect of a mutation on the interaction of K50Q and report it.
Output: decreasing interaction

Input: Look up and report measured effect of a mutation on the interaction for this entry: G243R
Output: decreasing interaction

Input: Answer with the recorded effect of a mutation on the interaction for the variant listed here: Y382H
Output: decreasing interaction

Input: Give the measured effect of a mutation on the interaction for I523V
Output: decreasing interaction

Input: Give the value of effect of a mutation on the interaction reported for the following: L149S
Output: decreasing interaction

Input: Report effect of a mutation on the interaction for C124R
Output: decreasing interaction
